tested_target: hNav1.7 and the β1 subunit (Homo sapiens, UniProt Q15858)
Construct: expressed in transfected cells
Sequence (Q15858 whole entry): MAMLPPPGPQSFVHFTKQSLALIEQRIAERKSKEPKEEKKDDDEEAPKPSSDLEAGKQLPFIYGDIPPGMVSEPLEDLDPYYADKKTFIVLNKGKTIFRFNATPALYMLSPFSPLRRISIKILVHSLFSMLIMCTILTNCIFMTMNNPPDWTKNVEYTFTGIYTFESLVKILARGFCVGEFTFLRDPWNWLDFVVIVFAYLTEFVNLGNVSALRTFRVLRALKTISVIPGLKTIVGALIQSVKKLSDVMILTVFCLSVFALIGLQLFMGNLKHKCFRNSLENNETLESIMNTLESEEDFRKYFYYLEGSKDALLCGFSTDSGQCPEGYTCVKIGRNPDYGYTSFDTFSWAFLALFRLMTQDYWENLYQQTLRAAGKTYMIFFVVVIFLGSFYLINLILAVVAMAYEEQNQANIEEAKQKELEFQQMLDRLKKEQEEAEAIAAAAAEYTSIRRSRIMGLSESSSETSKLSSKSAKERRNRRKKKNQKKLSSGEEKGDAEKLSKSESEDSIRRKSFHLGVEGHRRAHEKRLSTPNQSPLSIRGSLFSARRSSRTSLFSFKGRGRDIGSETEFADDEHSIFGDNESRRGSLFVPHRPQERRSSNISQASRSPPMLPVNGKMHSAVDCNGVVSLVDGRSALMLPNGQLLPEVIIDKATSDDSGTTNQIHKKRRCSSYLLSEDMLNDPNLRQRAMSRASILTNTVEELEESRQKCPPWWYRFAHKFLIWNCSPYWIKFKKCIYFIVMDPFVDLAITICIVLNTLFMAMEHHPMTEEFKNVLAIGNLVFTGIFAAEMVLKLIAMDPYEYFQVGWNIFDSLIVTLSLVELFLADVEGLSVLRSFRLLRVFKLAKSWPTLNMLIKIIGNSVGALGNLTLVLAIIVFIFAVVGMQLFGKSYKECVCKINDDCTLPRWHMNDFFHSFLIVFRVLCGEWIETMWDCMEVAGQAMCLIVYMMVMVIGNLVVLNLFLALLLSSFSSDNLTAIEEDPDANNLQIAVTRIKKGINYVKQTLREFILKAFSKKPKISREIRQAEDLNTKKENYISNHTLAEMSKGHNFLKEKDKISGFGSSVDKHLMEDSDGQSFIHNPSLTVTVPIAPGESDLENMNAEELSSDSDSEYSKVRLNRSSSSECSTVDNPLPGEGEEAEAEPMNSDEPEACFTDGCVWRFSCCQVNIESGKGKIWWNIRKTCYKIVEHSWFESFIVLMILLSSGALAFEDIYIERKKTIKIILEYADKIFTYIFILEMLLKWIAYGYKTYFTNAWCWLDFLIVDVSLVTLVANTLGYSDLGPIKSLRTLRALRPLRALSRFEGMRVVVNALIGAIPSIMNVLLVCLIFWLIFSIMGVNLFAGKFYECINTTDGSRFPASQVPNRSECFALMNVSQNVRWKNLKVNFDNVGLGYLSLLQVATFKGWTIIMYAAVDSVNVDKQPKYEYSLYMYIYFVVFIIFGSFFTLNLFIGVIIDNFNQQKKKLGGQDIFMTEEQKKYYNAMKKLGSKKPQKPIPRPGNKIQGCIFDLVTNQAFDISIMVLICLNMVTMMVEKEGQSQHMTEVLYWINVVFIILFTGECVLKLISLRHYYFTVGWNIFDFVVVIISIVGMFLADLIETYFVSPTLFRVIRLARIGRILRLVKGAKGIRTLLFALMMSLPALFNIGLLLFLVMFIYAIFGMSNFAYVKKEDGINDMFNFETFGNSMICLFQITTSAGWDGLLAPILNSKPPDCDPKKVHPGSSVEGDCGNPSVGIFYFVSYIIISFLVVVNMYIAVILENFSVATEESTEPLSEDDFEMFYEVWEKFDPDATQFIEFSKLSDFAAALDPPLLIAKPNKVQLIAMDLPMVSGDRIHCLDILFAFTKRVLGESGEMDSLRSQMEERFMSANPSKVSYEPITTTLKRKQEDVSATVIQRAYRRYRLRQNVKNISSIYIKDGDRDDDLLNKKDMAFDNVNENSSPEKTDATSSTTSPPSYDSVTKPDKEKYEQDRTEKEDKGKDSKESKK
Sequence (Q07699 19-218 partner): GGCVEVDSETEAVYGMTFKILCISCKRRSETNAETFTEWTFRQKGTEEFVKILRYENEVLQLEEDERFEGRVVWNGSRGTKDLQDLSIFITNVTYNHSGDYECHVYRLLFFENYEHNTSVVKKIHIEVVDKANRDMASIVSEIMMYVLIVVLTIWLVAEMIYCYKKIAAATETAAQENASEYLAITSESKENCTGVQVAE
assay_name: Tritiated compound competitive binding to membranes from cells heterologously expressing hNav1.7 and the β1 subunit (LBA)
recorded_conditions: competition with 100 pM [3H]compound, 18 h, room temperature; IC50 by 4 parameter logistic model
measured_quantity: Nav1.7 (LBA) (µM)

Examples from the recorded data:
compound: O=S(=O)(Nc1ncns1)c1ccc2c(c1)OCC[C@H]2N1CCN(CC(F)(F)F)C[C@H]1c1ccccc1 (single isomer, unassigned)
u: µM
Nav1.7 (LBA): 0.0128

compound: O=S(=O)(Nc1ncns1)c1ccc2c(c1)OCC[C@H]2N1CC[C@@H](C(F)F)C[C@H]1c1ccc(F)cc1
u: µM
Nav1.7 (LBA): 2.18

compound: Cn1nccc1[C@@H]1C[C@H](C(F)(F)F)CCN1[C@@H]1CCOc2cc(S(=O)(=O)Nc3nccs3)c(F)cc21
u: µM
Nav1.7 (LBA): 0.18

compound: Cn1nccc1[C@H]1C[C@@H](C(F)(F)F)CCN1[C@@H]1CCOc2cc(S(=O)(=O)Nc3ncns3)ccc21 (single isomer, unassigned)
u: µM
Nav1.7 (LBA): 0.313

compound: O=S(=O)(Nc1nccs1)c1cc2c(cc1F)[C@H](N1CC[C@H](C(F)(F)F)C[C@@H]1c1ccn[nH]1)CCO2
u: µM
Nav1.7 (LBA): 0.0274

(1) O=S(=O)(Nc1ncns1)c1ccc2c(c1)C(F)(F)CC[C@@H]2N1CCCC[C@H]1c1cccnc1 (single isomer, unassigned)
(2) CC(C)[C@H]1CCN([C@@H]2CCOc3cc(S(=O)(=O)Nc4ncns4)ccc32)[C@@H](c2ccccc2)C1 (single isomer, unassigned)
Quick one: lower Nav1.7 (LBA), 1 or 2 ? Could you answer with the label of the item you picked?
2
(2: 0.109 µM, 1: 0.249 µM)

(a) O=S(=O)(Nc1ncns1)c1ccc2c(c1)OCC[C@H]2N1CC[C@H](C(F)(F)F)C[C@@H]1c1ccn[nH]1 (single isomer, unassigned)
(b) O=S(=O)(Nc1nccs1)c1cc2c(cc1F)[C@H](N1CC[C@@H](C(F)(F)F)C[C@H]1c1ccncc1)CCO2
(c) O=S(=O)(Nc1ncns1)c1ccc2c(c1)OCC[C@@H]2N1CC[C@@H](C(F)(F)F)C[C@@H]1c1ccc(F)c(F)c1
(d) O=S(=O)(Nc1ncns1)c1ccc2c(c1)OCC[C@H]2N1CCC(F)(F)C[C@@H]1c1ccccc1 (single isomer, unassigned)
Please list these compounds in decreasing order of Nav1.7 (LBA). Reply with the labels, ordered as the question asks.
c, d, a, b
(c: 2.0 µM, d: 0.486 µM, a: 0.308 µM, b: 0.0901 µM)

(P) Cn1nccc1[C@H]1C[C@@H](C(F)(F)F)CCN1[C@@H]1CCOc2cc(S(=O)(=O)Nc3nccs3)c(F)cc21
(Q) O=S(=O)(Nc1ncns1)c1ccc2c(c1)OCCC2N1CCOC[C@H]1c1ccccc1 (stereo partly shown)
For P and Q , which recorded Nav1.7 (LBA) is lower? Reply with the label of the item you choose.
Q
(Q: 0.0859 µM, P: 0.442 µM)
